- study_target: TGF-β1 (UniProt P01137 279-390)
- Sequence (P01137 279-390 limits assumed): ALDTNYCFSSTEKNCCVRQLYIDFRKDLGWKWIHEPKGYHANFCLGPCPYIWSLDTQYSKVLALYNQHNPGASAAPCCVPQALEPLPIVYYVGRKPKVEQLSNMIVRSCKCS
- assay_overview: cell-based or functional assay
reported_endpoint: IC50, TGF-β1 neutralization activity (HEK-Blue TGF-β reporter cells) (pM)
Use pM as the unit, but write only the number.

Observe how each entry below is paired with its result.
{"binder": "Anti-PD-1 (VL5-VH6).IgG4-Linker7 -TGFbRII (other) heavy (part 1 of 2): QVQLVESGGGVVQPGRSLRLDCKASGITFSNSGMHWVRQAPGKGLEWVAVIWYDGSKRYYADSVKGRFTISRDNSKNTLFLQMNSLRAEDTAVYYCATNDDYWGQGTLVTVSS heavy (part 2 of 2): DPGSGSVPLGSGSNPGSIPPHVQKSVNNDMIVTDNNGAVKFPQLCKFCDVRFSTCDNQKSCMSNCSITSICEKPQEVCVAVWRKNDENITLETVCHDPKLPYHDFILEDAASPKCIMKEKKKPGETFFMCSCSSDECNDNIIFSEEYNTSNPD VL: EIVLTQSPATLSLSPGERATLSCRASQSVSSYLAWYQQKPGQAPRLLIYDASNRATGIPARFSGSGSGTDFTLTISSLEPEDFAVYYCQQSSNWPRTFGQGTKVEIK", "numeric_value": 1.1}
{"binder": "Anti-PD-1 (VL5-VH6).IgG4-Linker10 -TGFbRII (other) heavy (part 1 of 2): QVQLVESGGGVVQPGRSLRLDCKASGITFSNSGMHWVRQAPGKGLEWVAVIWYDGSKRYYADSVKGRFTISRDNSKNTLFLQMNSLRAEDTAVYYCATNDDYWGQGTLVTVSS heavy (part 2 of 2): DPGVLEREDVPTTSYPNPGSIPPHVQKSVNNDMIVTDNNGAVKFPQLCKFCDVRFSTCDNQKSCMSNCSITSICEKPQEVCVAVWRKNDENITLETVCHDPKLPYHDFILEDAASPKCIMKEKKKPGETFFMCSCSSDECNDNIIFSEEYNTSNPD VL: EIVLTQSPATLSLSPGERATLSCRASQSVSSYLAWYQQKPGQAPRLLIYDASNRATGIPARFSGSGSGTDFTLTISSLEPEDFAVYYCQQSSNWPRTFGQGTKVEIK", "numeric_value": 1.9}

Then there is this binder:
Q. Need IC50, TGF-β1 neutralization activity (HEK-Blue TGF-β reporter cells) of Anti-PD-1 (VL5-VH6).IgG4-Linker8 -TGFbRII (other) heavy (part 1 of 2): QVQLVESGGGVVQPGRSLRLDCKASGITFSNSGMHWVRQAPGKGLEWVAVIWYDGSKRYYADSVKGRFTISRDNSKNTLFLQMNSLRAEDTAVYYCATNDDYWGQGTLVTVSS heavy (part 2 of 2): DPGSGGSVPLGSGGSNPGSIPPHVQKSVNNDMIVTDNNGAVKFPQLCKFCDVRFSTCDNQKSCMSNCSITSICEKPQEVCVAVWRKNDENITLETVCHDPKLPYHDFILEDAASPKCIMKEKKKPGETFFMCSCSSDECNDNIIFSEEYNTSNPD VL: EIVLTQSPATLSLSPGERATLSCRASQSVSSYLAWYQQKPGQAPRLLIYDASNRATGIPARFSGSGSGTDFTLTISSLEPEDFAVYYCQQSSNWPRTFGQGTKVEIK , thanks.
A. 1.2
